These measurements were taken from ChEMBL document CHEMBL2176968.

Assay: Octanol-water partition coefficient, log P of the compound
Assay type: physicochemical
// values below are reported logP
reported property: logP

- COC1CCC(/N=c2\cc3n(-c4ccc(Cl)cc4)c4ccccc4nc-3cc2Nc2ccc(C)nc2)CC1 (configuration not stated): 4.11
- COc1ncccc1Nc1cc2nc3ccccc3n(-c3ccc(F)cc3)c-2c/c1=N\C1CCC(OC)CC1 (configuration not stated): 4.82
- COc1ncccc1Nc1cc2nc3ccccc3n(-c3ccc(Cl)cc3)c-2c/c1=N\C1CCOCC1: 4.15
- CC(C)/N=c1\cc2n(-c3ccc(Cl)cc3)c3ccccc3nc-2cc1Nc1ccc(Cl)cc1 [CLOFAZIMINE]: 5.34
- COc1ncccc1Nc1cc2nc3ccccc3n(-c3ccc(OC(F)(F)F)cc3)c-2c/c1=N\C1CCC(OC)CC1 (configuration not stated): 4.52
- COc1ncccc1Nc1cc2nc3ccccc3n(-c3ccc(F)cc3)c-2c/c1=N\C(C)C: 4.07
- COc1ncccc1Nc1cc2nc3ccccc3n(-c3ccc(Cl)cc3)c-2c/c1=N\C1CCC(OC)CC1 (configuration not stated): 3.74
